SYSTEM NAME: T1, Siglec-7-ECD (human, UniProt Q9Y286 19-353)
T1 construct: also called p75; AIRM
T1 sequence (Q9Y286 19-353 limits assumed): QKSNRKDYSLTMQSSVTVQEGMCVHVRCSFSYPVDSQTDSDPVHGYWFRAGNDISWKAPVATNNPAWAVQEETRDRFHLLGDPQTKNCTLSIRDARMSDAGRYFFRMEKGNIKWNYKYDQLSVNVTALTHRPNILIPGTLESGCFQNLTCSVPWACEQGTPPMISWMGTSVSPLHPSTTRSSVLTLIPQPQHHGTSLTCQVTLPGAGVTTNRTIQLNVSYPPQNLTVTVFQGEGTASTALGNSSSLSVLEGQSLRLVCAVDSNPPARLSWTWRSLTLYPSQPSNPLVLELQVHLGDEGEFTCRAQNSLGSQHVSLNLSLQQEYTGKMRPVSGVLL
ASSAY TEXT: bio-layer interferometry (ForteBio): antibody captured on the sensor, Siglec-7-ECD as analyte, 1:1 global fit
Reported Kd values are given for each entry in this list.
Just the number in nM, nothing appended.

(Q) Entry monoclonal antibody 8A2 (antibody, V domains shown) VH: QVQLKESGPGLVAPSQSLSITCTVSGFSLTTYGVDWVRQFPGKGLEWLGVIWGGGNTNYNSALMSRLSISKDTSKSQVFLKMNSLQTDDTAMYYCAKHKGTSHAMEYWGQGTSVTVSS VL: QIVLTQSPAIMSASPGEKVTMTCSASSRVIFMYWYQQKPGSSPRLLIYDTSNLASGVPVRFSGGGSGTSYSLTISRMEAEDAATYYCQQWSSYPPTFGAGTKLELK has what Kd?
(A) 0.001

(Q) What do you have for monoclonal antibody 3F1 (antibody, V domains shown) VH: EFQLQQSGPEMVKPGASVKMSCKASGDSFTDYKINWVKQNNGKSLEWIGVINPDSGTTSYNQIFEGKATLTVDQSSSTAYMQVNRLTSEDSAVYYCTTWDDYSFYAMDYWGQGTSVTVSS VL: DVLMTQTPLSLPVSLGDQASISCRSSQNIVHSNGNTYLEWFLQKPGQSPKLLIYKVSNRFSGVPDRFSGSGSGTDFTLKISRVEAEDLGVYYCFQGSHIPWTFGGGTKLEIK ?
(A) 0.041

(Q) Try this binder too: monoclonal antibody 16H11 (antibody, V domains shown, Parental antibody; The Methods capture antibodies on anti-mouse sensors) VH: QVQLHQSGAELVKPGASVKISCKGSGYDFSNFWMNWVKQRPGKGLEWIGQIYPGDGEIKYNGKFKGKATLTADESSSTAYIHLSSLTSEDSAVYFCARDDYLRAMDYWGQGTSVTVSS VL: DIQMTQSPASLSASVGETVTITCRASGNIHNYLAWFQQKQGKSPHFLVYSAKALADGVPSRFSGSGSGTQYSLKINSLQPEDFGTYYCQHFWSSPYTFGGGTKLEIK
(A) 0.035
